Reference for the values: patent US7414071B2

- test system: human EP1 receptor (Homo sapiens)
- Sequence (P34995 whole entry): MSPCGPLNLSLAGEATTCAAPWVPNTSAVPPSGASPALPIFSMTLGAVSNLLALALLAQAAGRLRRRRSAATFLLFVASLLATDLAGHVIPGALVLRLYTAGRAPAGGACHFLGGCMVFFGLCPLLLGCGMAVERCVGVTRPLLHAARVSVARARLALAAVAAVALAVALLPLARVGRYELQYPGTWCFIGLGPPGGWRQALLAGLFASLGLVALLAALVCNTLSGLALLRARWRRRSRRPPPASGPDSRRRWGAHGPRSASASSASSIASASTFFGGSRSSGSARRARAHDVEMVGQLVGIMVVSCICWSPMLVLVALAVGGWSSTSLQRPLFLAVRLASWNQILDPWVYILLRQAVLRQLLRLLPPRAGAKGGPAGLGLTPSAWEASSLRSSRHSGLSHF
recorded metric: IC50

Asked: Record `O=C(O)c1ccc(CCCN2C(=O)CC[C@@H]2CC[C@@H](O)Cc2cccc(C(F)(F)F)c2)s1` : what is its IC50 with human EP1 receptor (Homo sapiens)?
Given back: > 1 µM
